The origin of these recorded values is patent US20150148256A1.

Target: ABCG2 (Homo sapiens)
Sequence (Q9UNQ0 1-655): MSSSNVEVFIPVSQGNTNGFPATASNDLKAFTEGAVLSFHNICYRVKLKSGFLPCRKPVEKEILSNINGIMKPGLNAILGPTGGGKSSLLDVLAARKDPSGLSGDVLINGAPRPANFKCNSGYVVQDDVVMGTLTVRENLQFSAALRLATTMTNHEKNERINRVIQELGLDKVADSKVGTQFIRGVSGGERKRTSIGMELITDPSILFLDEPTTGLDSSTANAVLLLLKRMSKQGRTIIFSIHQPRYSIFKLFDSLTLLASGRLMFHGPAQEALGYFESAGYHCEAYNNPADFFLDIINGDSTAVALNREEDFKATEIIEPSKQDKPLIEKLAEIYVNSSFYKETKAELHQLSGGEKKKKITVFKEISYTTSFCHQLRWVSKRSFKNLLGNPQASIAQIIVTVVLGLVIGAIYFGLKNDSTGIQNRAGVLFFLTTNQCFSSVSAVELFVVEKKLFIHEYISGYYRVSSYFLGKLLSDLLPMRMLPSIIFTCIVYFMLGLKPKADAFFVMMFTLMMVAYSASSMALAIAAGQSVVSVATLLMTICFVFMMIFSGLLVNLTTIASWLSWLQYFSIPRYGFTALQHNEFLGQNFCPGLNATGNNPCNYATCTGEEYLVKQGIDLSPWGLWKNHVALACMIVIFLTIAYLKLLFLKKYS
Test: Bioluminescence imaging (BLI) assay in HEK293/ABCG2/fLuc cells
Settings: human, 40 min, 17 μM
Structures can show the parent of a compound that is named as a salt.

>  <compound>
O=C1C[C@@H](c2ccc(O)cc2)Oc2cc(O)cc(O)c21 [naringenin]

>  <tested_system>
ABCG2 (Homo sapiens)

>  <BLI signal enhancement / fold>
1.9

$$$$
>  <compound>
O=c1c(-c2ccc(O)cc2)coc2cc(O)cc(O)c12 [genistein]

>  <tested_system>
ABCG2 (Homo sapiens)

>  <BLI signal enhancement / fold>
1.2

$$$$
>  <compound>
COc1cc2nc(N3CCN(C(=O)C4COc5ccccc5O4)CC3)nc(N)c2cc1OC (stereo not shown) [doxazosin mesylate]

>  <tested_system>
ABCG2 (Homo sapiens)

>  <BLI signal enhancement / fold>
16

$$$$
